Target: NAMPT (human, recombinant, C-terminally His-tagged) (Homo sapiens, UniProt P43490)
Sequence (P43490 whole entry): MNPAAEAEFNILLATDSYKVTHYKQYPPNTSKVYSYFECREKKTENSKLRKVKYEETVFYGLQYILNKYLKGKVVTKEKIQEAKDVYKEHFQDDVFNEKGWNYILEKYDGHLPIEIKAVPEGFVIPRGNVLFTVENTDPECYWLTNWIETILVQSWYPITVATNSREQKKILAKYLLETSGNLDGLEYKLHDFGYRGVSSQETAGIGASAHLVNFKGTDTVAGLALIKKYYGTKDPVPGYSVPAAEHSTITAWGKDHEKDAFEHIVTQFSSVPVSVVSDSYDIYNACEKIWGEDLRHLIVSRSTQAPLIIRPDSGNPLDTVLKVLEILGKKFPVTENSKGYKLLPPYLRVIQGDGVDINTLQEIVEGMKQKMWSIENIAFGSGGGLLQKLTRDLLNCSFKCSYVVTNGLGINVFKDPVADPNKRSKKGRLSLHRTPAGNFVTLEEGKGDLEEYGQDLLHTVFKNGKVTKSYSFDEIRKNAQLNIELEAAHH
Experiment: Time-Resolved Fluorescence Resonance Energy Transfer (TR-FRET) Binding Assay of NAMPT
Settings: without substrates; 6.8 nM NAMPT, 200 nM probe, 3 hours equilibration
Reported IC50 values follow for various compounds
API: value field is a number in nM; no unit string.

Answered cases to consult:
compound="O=C(Nc1ccc(C2=CCN(C(=O)CC3CCOC3)CC2)cc1)Nc1ccc2nccn2c1 (centres unmarked) [Example 28]" tested_system="NAMPT (human, recombinant, C-terminally His-tagged) (Homo sapiens, UniProt P43490)" quantity_name=IC50 reading=152
compound="O=C(NCc1ccn2ccnc2c1)c1ccc(C2CCN(C(=O)c3nccs3)C2)cc1 (centres unmarked) [Example 613]" tested_system="NAMPT (human, recombinant, C-terminally His-tagged) (Homo sapiens, UniProt P43490)" quantity_name=IC50 reading=347
compound="Cc1cc(C(=O)N2CCC(c3ccc(C(=O)NCc4ccn5ccnc5c4)s3)C2)c(C)o1 (centres unmarked) [Example 778]" tested_system="NAMPT (human, recombinant, C-terminally His-tagged) (Homo sapiens, UniProt P43490)" quantity_name=IC50 reading=27.6
compound="CC[C@H](C)C(=O)N1CC[C@H](Oc2ccc(NC(=O)NCc3ccn4ccnc4c3)cc2)C1 [Example 328]" tested_system="NAMPT (human, recombinant, C-terminally His-tagged) (Homo sapiens, UniProt P43490)" quantity_name=IC50 reading=68
compound="CC(C)(O)C(=O)N1CC(c2ccc(C(=O)NCc3ccn4ccnc4c3)cc2)C1 [Example 550]" tested_system="NAMPT (human, recombinant, C-terminally His-tagged) (Homo sapiens, UniProt P43490)" quantity_name=IC50 reading=762

For reference, reported IC50 for O=C(NCc1ccn2ccnc2c1)c1ccc(C2CN(C(=O)c3ccccc3Cl)C2)cc1 [Example 643] stands at 28

For reference, reported IC50 for CC(C)C(=O)N1CC[C@H](Oc2ccc(C(=O)NCc3ccn4ccnc4c3)cc2)C1 [Example 351] stands at 8390

----------
# IC50 measurements, system: NAMPT (Homo sapiens, UniProt P43490)
Mention the unit after the number when you answer.

Answered cases to consult:
molecule=Cn1cccc1C(=O)N1CCC(c2ccc(C(=O)NCc3ccn4ccnc4c3)cc2)CC1 quantity_name=IC50 reading="0.169 nM"
molecule="O=C(NCc1ccn2ccnc2c1)Nc1ccc(C2CCN(C(=O)CC3CCOCC3)C2)cc1 (stereo not drawn)" quantity_name=IC50 reading="0.227 nM"
molecule=CC(C)Cn1cc(-c2ccc(C(=O)NCc3ccn4ncnc4c3)s2)cn1 quantity_name=IC50 reading="2.86 nM"

// assay NAMPT (Homo sapiens, UniProt P43490), entry CC(C)S(=O)(=O)N1CC(c2ccc(C(=O)NCc3ccn4ccnc4c3)cc2)C1 , IC50 value = 0.359 nM

// assay NAMPT (Homo sapiens, UniProt P43490), entry O=C(NCc1ccn2ccnc2c1)c1ccc(C2CCN(C(=O)c3ccc(Cl)cc3)CC2)cc1 , IC50 value = 0.283 nM

// assay NAMPT (Homo sapiens, UniProt P43490), entry CC(C)C(=O)N1CCC(c2ccc(C(=O)NCc3ccn4c(Cl)cnc4c3)cc2)CC1 , IC50 value = 10.8 nM

// assay NAMPT (Homo sapiens, UniProt P43490), entry O=C(CCC1CCCC1)Nc1ccc(NC(=O)NCc2ccc3nccn3c2)cc1 , IC50 value = 0.43 nM

// assay NAMPT (Homo sapiens, UniProt P43490), entry Cc1ncc(CC(=O)N(CC2CCCO2)c2ncc(C(=O)NCc3ccc4nccn4c3)s2)s1 (stereo not drawn) , IC50 value = 2.57 nM
